- STUDY_TARGET: MAGI2_5, Q86UL8
- Sequence (Q86UL8 915-1017): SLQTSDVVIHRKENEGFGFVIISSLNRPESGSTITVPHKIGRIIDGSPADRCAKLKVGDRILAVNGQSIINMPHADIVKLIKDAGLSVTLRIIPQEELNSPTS
- TEST_DESCRIPTION: holdup assay
- Design: key: below the threshold = too weak to quantify, mostly under pKd 3.1 to 4
- EXPERIMENTAL_SETUP: plain residues with an end cap or a label only (N-terminal biotin on a linker: ttds)
Each entry below carries its recorded pKd.

{"BINDER": "IYVPEAQTRL [DLGAP4, Q9Y2H0]", "pKd": 3.82}
{"BINDER": "GQDSREETQL [KCNT2, Q6UVM3]", "pKd": 4.37}
{"BINDER": "QSARYRDTEL [TJP2, Q9UDY2]", "pKd": 3.48}
